Every entry's value here was drawn from PubChem BioAssay (NCI).

- Tested on: OVCAR-3 ovarian
- assayMethodText: NCI tumour cell line growth inhibition, 48 h
quantityMeasured: TGI (µM)
Unit µM implied. Number only.

Exercise: Item COCCn1c(Nc2ccc(C(=O)NO)cc2)nc2ccccc21 has what recorded TGI?
Solution: 14.1

// switching to the query compound
Exercise: Item c1ccc(CCCN2C3CCC2CN(CCOC(c2ccccc2)c2ccccc2)C3)cc1 has what recorded TGI?
Solution: 30.4

====

- Test system: NCI-H460 lung
- assayMethodText: NCI tumour cell line growth inhibition, 48 h
quantityMeasured: TGI

The examples below pair each entry with its known result.
Exercise: Item N#Cc1nc2cc(Cl)c(Cl)cc2nc1-c1ccc(Cl)cc1 has what recorded TGI?
Solution: > 100 µM

Exercise: Param item: Clc1ccc(NCNC2Nc3ccccc3N2)cc1Cl
Solution: > 100 µM

Exercise: Param item: O=S(=O)(O)c1cc(O)c(N=NC2S(=O)(=O)OCCOS2(=O)=O)c2ccccc12
Solution: > 100 µM

Exercise: Param item: CN1CCN(c2ccc3nc(-c4[nH]ncc4Nc4ncnc5[nH]ccc45)[nH]c3c2)CC1
Solution: 9.78 µM

Exercise: Param item: CC(C)(C)CNCCO
Solution: > 100 µM

Continuing:
Exercise: Item O=C(Nc1ccccc1/C=C/c1n[nH]c2ccccc12)c1ccccc1 has what recorded TGI?
Solution: 11.2 µM

Exercise: Param item: O=C1C(NS(=O)(=O)c2ccccc2)=C(n2ccnc2)C(=O)c2ccccc21
Solution: > 100 µM

Exercise: Param item: Cc1cccc(-c2cc(=O)c3cccnc3[nH]2)c1
Solution: > 100 µM

Exercise: Param item: C/C(=N/NC(=S)N1CCCCCC1)c1cccc(/C(C)=N\NC(=S)N2CCCCCC2)n1
Solution: 6.78 µM

Exercise: Param item: C[C@]12CC[C@H]3[C@@H](CCC4=CC(=O)CC[C@@]43C)[C@]1(O)CC[C@]2(O)C(=O)CO
Solution: > 100 µM

====

- Tested on: HCT-15 colon
- assayMethodText: NCI tumour cell line growth inhibition, 48 h
quantityMeasured: GI50

The examples below pair each entry with its known result.
Exercise: Item CC(=O)Nc1ccc(CC[C@H]2CCC/C=C/[C@@H]3C[C@H](O)C[C@H]3[C@H](O)/C=C/C(=O)O2)cc1 has what recorded GI50?
Solution: 0.471 µM

Exercise: Param item: CCCN1CCC(Oc2cc(Nc3nc(Nc4cccc(F)c4C(N)=O)c4cc[nH]c4n3)c(OC)cc2Cl)CC1
Solution: 1.44 µM

Exercise: Param item: Cc1cc2c(cc1Cl)SC(=Nc1ccc(Cl)cc1)N(S(=O)(=O)c1ccc(Br)s1)S2(=O)=O
Solution: 11.9 µM

Exercise: Param item: N#Cc1nc2cc(Cl)c(Cl)cc2nc1-c1ccc(Cl)cc1
Solution: > 71.9 µM

// switching to the query compound
Exercise: Item CC(C)Cn1cnc2c(N)nc3ccccc3c21 has what recorded GI50?
Solution: 29.7 µM

====

- Tested on: M14 melanoma
- assayMethodText: NCI tumour cell line growth inhibition, 48 h
Reported GI50 values are given for each entry in this list.

Exercise: Item Cc1cc(NC(=O)NCCCOc2ccc(N3C(N)=NC(N)=NC3(C)C)cc2Cl)ccc1S(=O)(=O)F has what recorded GI50?
Solution: 2.42 µM

Exercise: Param item: Cc1ccc(NC(=O)c2ccoc2)cc1-c1ccc(C(=O)NCC2CC2)cc1
Solution: > 25 µM

Exercise: Param item: COc1ccc(-c2nc(-c3nc4cc(Cl)c(Cl)cc4[nH]3)c3ccccn23)cc1
Solution: 4.92 µM

Exercise: Param item: O=C(Nc1ccccc1/C=C/c1n[nH]c2ccccc12)c1ccccc1
Solution: 3.32 µM

Continuing:
Exercise: Item Nc1nc(N)c2cc(S(=O)(=O)c3cccc(C(F)(F)F)c3)ccc2n1 has what recorded GI50?
Solution: 2 µM

Exercise: Param item: C=CC(=O)N1CCN([C@@H](CC2CC2)c2ccc([C@H](C)Nc3ncc4c(n3)N(CC)C(=O)OC4)cc2)CC1
Solution: 15.5 µM

====

- Test system: 786-0 renal
- assayMethodText: NCI tumour cell line growth inhibition, 48 h
*1 amine or outer side, *2 acyl side, *3 side chain or, on linkers, in order; H or OH if unused. Where a SMILES comes first, the peptide text is derived from it. [ ]: non-standard residue; d: D form. The star is where a group is joined. ξ: configuration not given here. Pentanoyl(2-O,4-OH,5-Cl) = O=C(O)C(O)CC(O)CCl; γGlu = O=C(O)[CH](CCC(=O)[*:2])N[*:1]; Ile(3ξ) = CCC(C)[C@H](N)C(=O)O; NMeV = CN[C@H](C(=O)O)C(C)C; NMeA = CN[C@@H](C)C(=O)O; βAla = NCCC(=O)O; NHOH = ON*
quantityMeasured: TGI

The examples below pair each entry with its known result.
Exercise: Item CC(C)CC(NC(=O)C(O)C(N)Cc1ccccc1)C(=O)O (stereo unspecified) has what recorded TGI?
Solution: > 100 µM

Exercise: Param item: c1ccc(CCCN2C3CCC2CN(CCOC(c2ccccc2)c2ccccc2)C3)cc1
Solution: 21.6 µM

Exercise: Param item: Oc1ccc(CCNc2nc3ccccc3c3[nH]c4ccccc4c23)cc1O
Solution: 2.98 µM

Exercise: Param item: O=C(Nc1ccccc1/C=C/c1n[nH]c2ccccc12)c1ccccc1
Solution: 26.7 µM

Exercise: Param item: COc1cccc(C2CC(C)(O)Oc3cc4c(cc32)OCO4)c1 (stereo unspecified)
Solution: > 100 µM

Continuing:
Exercise: Item CCOC(=O)c1sc2nc(=S)[nH]c(NC(N)=S)c2c1C has what recorded TGI?
Solution: 45.5 µM

Exercise: Param item: CCOP(=O)(OCC)C(C(=O)OC)C(=O)C(=O)Nc1cccc([N+](=O)[O-])c1 (stereo unspecified)
Solution: > 100 µM

Exercise: Param item: [O-]c1ccccc1C=NCCN=Cc1ccccc1[O-].[O]=[U+2]=[O]
Solution: 39.2 µM

Exercise: Param item: CN(C)CCNc1c(O)c2c(c(O)c1Cl)C(=O)C=CC2=O
Solution: 4.27 µM

Exercise: Param item: C/C(=C\CCC1=CC(=O)OC1)CCC1C2C(=O)CC(C)[C@@]3(C)CC[C@]1(C)[C@@]23C (stereo partly specified)
Solution: > 10 µM

Exercise: Param item: OC(c1ccccc1)c1c(-c2ccccc2)[nH]c(-c2ccccc2)c1C(O)c1ccccc1 (stereo unspecified)
Solution: 16.1 µM

Exercise: Param item: CCC(C)[C@@H]1NC(=O)[C@@H]2CCCN2C(=O)C(CC(O)CCl)OC(=O)CCNC(=O)[C@H](C)N(C)C(=O)[C@H](C(C)C)N(C)C1=O (stereo partly specified) (cyclo([Ile(3ξ)][NMeV][NMeA][βAla][Pentanoyl(2-O,4-OH,5-Cl)]P))
Solution: > 86.2 µM

Exercise: Param item: CC(C)(Sc1cc(C(C)(C)C)c(O)c(C(C)(C)C)c1)Sc1cc(C(C)(C)C)c(O)c(C(C)(C)C)c1
Solution: > 100 µM

Exercise: Param item: O=C1C(NS(=O)(=O)c2ccccc2)=C(n2ccnc2)C(=O)c2ccccc21
Solution: > 100 µM

Exercise: Param item: Cc1cc2c3c(c1)S(=O)(=O)c1cc(Cl)ccc1N3CCC2
Solution: > 100 µM

Exercise: Param item: Fc1ccc(/C=C2\COCC3=C2NC(=S)NC3c2ccc(F)cc2)cc1 (stereo unspecified)
Solution: 34.4 µM

Exercise: Param item: CSC(=Nc1ccccc1)c1c(C)[nH]n(-c2ccccc2)c1=O
Solution: > 100 µM

Exercise: Param item: NC(CCC(=O)NC(CCC(=O)NO)C(=O)NCC(=O)O)C(=O)O (stereo unspecified) (γGlu-Glu(NHOH)-Gly-OH; configuration not given here)
Solution: > 100 µM

Exercise: Param item: OC1C2CN3CCN(C2)CC1(c1ccccc1)C3 (stereo unspecified)
Solution: > 100 µM

Exercise: Param item: CCN1CC2=C(OC(N)=C(C#N)C2c2ccc(Cl)cc2)/C(=C/c2ccc(Cl)cc2)C1 (stereo unspecified)
Solution: 29.8 µM

Exercise: Param item: O=c1[nH]nc(-c2ccc3ccccc3c2)[nH]1
Solution: > 100 µM

Exercise: Param item: N#Cc1cnc2ccc(NCc3cnc[nH]3)cc2c1Nc1ccc(F)c(Cl)c1
Solution: > 100 µM

Exercise: Param item: CCN(CC)c1c(-c2c(OC(C)C)c(=O)c2=O)c(=O)n2ccsc2c1OC(C)=O
Solution: > 100 µM

Exercise: Param item: COP(=O)(OC)[C@@](O)(c1ccccc1)[C@@H](O)[C@H](O)c1ccccc1
Solution: > 100 µM

Exercise: Param item: CCOc1ccc2c(c1)[n+]([O-])c(-c1ccccc1)c(N)[n+]2[O-]
Solution: > 100 µM

Exercise: Param item: COc1nc2ncc([C@@H](OC(C)=O)[C@@H](COC(C)=O)OC(C)=O)nc2c(=O)n1C
Solution: > 100 µM

Exercise: Param item: O=S(=O)(O)c1cc(O)c(N=NC2S(=O)(=O)OCCOS2(=O)=O)c2ccccc12
Solution: > 100 µM

Exercise: Param item: Cc1c2ccccc2c(=O)n2c(-c3ccccn3)cccc12
Solution: > 100 µM

Exercise: Param item: O=S1(=O)[C@H](c2ccccc2)c2c(-c3ccccc3)sc(-c3ccccc3)c2[C@@H]1c1ccccc1
Solution: > 100 µM
